pKi: −log10 of the molar value.
Measurement record for D(3) dopamine receptor (Homo sapiens, UniProt P35462); quantity recorded: pKi.
quantity: pKi

• N#Cc1ccc2c(c1)CCN(CC[C@H]1CC[C@H](NC(=O)/C=C/c3ccccc3F)CC1)CC2 = 8.00
• CC(=O)Nc1cccc(/C=C/C(=O)N[C@H]2CC[C@H](CCN3CCc4ccc(C#N)cc4CC3)CC2)c1 = 8.50
• N#Cc1ccc2c(c1)CCN(CC[C@H]1CC[C@H](NC(=O)c3cccc4ncccc34)CC1)CC2 = 7.90
• N#Cc1ccc2c(c1)CCN(CC[C@H]1CC[C@H](NC(=O)/C=C/c3ccc(F)cc3)CC1)CC2 = 8.20
• N#Cc1ccc2c(c1)CCN(CC[C@H]1CC[C@H](NC(=O)c3ccc4ccc(O)nc4c3)CC1)CC2 = 8.00
• N#Cc1ccc2c(c1)CCN(CC[C@H]1CC[C@H](NC(=O)c3ccc4ccccc4c3)CC1)CC2 = 7.70
• N#Cc1ccc2c(c1)CCN(CC[C@H]1CC[C@H](NC(=O)c3cc4ccccc4[nH]3)CC1)CC2 = 7.80
• COc1cccc(/C=C/C(=O)N[C@H]2CC[C@H](CCN3CCc4ccc(C#N)cc4CC3)CC2)c1 = 8.50
• CC(=O)c1cccc(/C=C/C(=O)N[C@H]2CC[C@H](CCN3CCc4ccc(C#N)cc4CC3)CC2)c1 = 8.40
• N#Cc1ccc2c(c1)CCN(CC[C@H]1CC[C@H](NC(=O)c3ccnc4ccccc34)CC1)CC2 = 7.60
